Assay: folding enthalpy; higher = less favourable; fluorescence melt of hairpins on a sequencing array, two-state fit
Settings: sodium 0.088 M
value kind: folding enthalpy (kcal/mol)
Please give a number only; it is taken to be in kcal/mol.

Endpoint output: folding enthalpy of GCTAGTGGAAACACTAGC (((((((....))))))) . Value?
-47.7

Okay, and GATCCACCAGTGGATC ((((((....)))))) ?
-50.8

What about GGTCTAGGAAACTAGACC (((((((....))))))) ?
-47.7

Could you do the same for GAGGGCGAAAGCCACCTC ((((((....)))..))) , please?
-11

Lookup GGTAGTGGAAACACTATC (.(((((....))))).)
-23.4

Same question, GTATCCGAAAGGAGGTAC ((((((....)))..))) this time
-10.3

Ok, now GATCCTGTCAGGATC ((((((...))))))
-36.7

Try the sequence GATCAGGTGTCTGATC ((((((....))))))
-40.2

Try the sequence GAGTACGGAAACGTACTC (((((((....)))))))
-42.5

What do we get for GCTCTGGCGAAAGCCAGC (((..(((....)))))) ?
-6.82

Also GCCATGGGAAACCATAGC ((.((((....)))).)) , if possible.
-25.6

Record: GATCCCCACGGGGATC ((((((....))))))
-36.2

###

Assay: folding enthalpy; higher = less favourable; fluorescence melt of hairpins on a sequencing array, two-state fit
Details: sodium 0.088 M
Hi there, I'd appreciate the recorded folding enthalpy for every entry that follows.

Given the entry GGCATCGAAAGATAGCC ((((((....))).))) , report its measured folding enthalpy.
-25.6 kcal/mol

And what about the sequence GGGTAGCCGAAAGGCCCC (((..(((....)))))) ?
-16.1 kcal/mol

// next record GGAGTTGCGAAAGCATCC (((..(((....))))))
-12.7 kcal/mol

Another sequence: GCAGTGCGAAAGCCCTGC ((((.((....)).))))
-32.8 kcal/mol

Next sequence up: GCCCAAGGAAACTTGAGC ((.((((....)))).))
-25.1 kcal/mol

Same again, this time with GATCGTAAGCACGATC ((((((....))))))
-36.4 kcal/mol

For GATCCAATCCTGGATC ((((((....)))))) then?
-37.7 kcal/mol

Continue with GATCATGCTTATGATC ((((((....))))))
-35.9 kcal/mol

GGCAGCGAAAGCTGCGCC ((((((....)))..))) ?
-6.68 kcal/mol

Item: GCGGGGCGAAAGCGTCGC (((..((....))..)))
-36 kcal/mol

Check GAACACGAAAGTGACTTC ((((((....)))..))) too.
-20.8 kcal/mol

Also need GGTTATGGAAACATAACC (((((((....))))))) , thanks.
-41.1 kcal/mol

Same read-out for GAAGGCGCGAAAGCGTTC (((..(((....)))))) ?
-9.37 kcal/mol

// same read-out, input: GTCTTCGAAAGAACAGAC ((((((....)))..)))
-16.6 kcal/mol

What do you get for GAAGTTGGAAACAATTTC (((.(((....))).))) ?
-20.4 kcal/mol

What do we get for GATAGTGAAAACTATC ((((((....)))))) ?
-30.1 kcal/mol

Thanks! And GCCCCGCGAAAGCCAGGC (((..((....))..))) ?
-20.8 kcal/mol

Same question for GCTGGACGAAAGTCTAGC (((.(((....))).))) please.
-39.1 kcal/mol

Same read-out for GCGTACGGAAACGTGCGC (((.(((....))).))) ?
-54.1 kcal/mol

Now give it for CGTGTGCGGAAACGCACG (((..(((....)))))) too.
-6.54 kcal/mol

Also GTTGGCGGAAACGTCAGC (.((.((....)).)).) ?
-21.6 kcal/mol

Also GGAAATCGAAAGATATCC (((.(((....))).))) ?
-26.2 kcal/mol

Field entry: GTCAAACGAAAGTTGGAC (((.(((....))).)))
-24.8 kcal/mol

Next sequence: GTTTCGGGAAACCAAAAC ((((.((....)).))))
-19.6 kcal/mol

What about GTGAAGGAAACTTCAC ((((((....)))))) ?
-32.5 kcal/mol
